System: CAKI-1 renal
Test description: NCI-60 one-dose screen, 48 h (100 = growth as untreated, 0 = no growth, -100 = all killed)
Applied conditions: 10 µM
About 83,000 compounds went through this panel and 20% of them were active in at least one assay; those are over-represented in the sample as a whole.
Endpoint label: growth (%)
A number alone suffices; assume %.

Answered cases to consult:
COc1cc(C(=O)C[n+]2ccc3ccccc3c2)cc(OC)c1OC : 92.6
O=C1c2c(c3c4cc(Br)ccc4[nH]c3c3ccc4ccccc4c23)C(=O)N1CCN1CCCCC1 : 31.2
CCCCCc1ccc(S(=O)(=O)N(C(C)=O)c2cccc(-c3csc(N(CCN4CCN(C)CC4)C(C)=O)n3)c2)cc1 : 20.5
Cc1ccc(NC(=O)c2ccc(CN3CCN(C)CC3)c(C(F)(F)F)c2)cc1Oc1ccc(-c2[nH]nc3ncnc(N)c23)cc1 : 92.1

Now for a further compound.
Inquiry: Give growth for the following compound: Cc1ccc(-c2cc3nc(C(Cl)Cl)nc(-c4ccccc4)n3n2)cc1
Reply text: 72.7

---

System: KM12 colon
Test description: NCI-60 one-dose screen, 48 h (100 = growth as untreated, 0 = no growth, -100 = all killed)
Applied conditions: 10 µM unless noted
Compounds without any hit were thinned out: in the full panel of roughly 83,000, 20% have a hit.
The following molecules are shown together with reported growth values.
Number only, in %; omit the unit.

See these solved cases before continuing.
O=C(CSc1nnc(-c2cccs2)n1-c1ccccc1)Nc1ccc(F)cc1 : 94.1
Cn1c2ccccc2c2c3c(c4c5ccc(Br)cc5oc4c21)C(=O)N(O)C3=O : 92.4
O=C1/C(=C/c2ccccc2[N+](=O)[O-])Oc2ccc(O)cc21 : 64.2
COc1ccc(C(=O)n2cc(C=O)c3ccccc32)cc1 : 102
CS(=O)(=O)c1ccc2c(c1)c1c(n2C(=O)c2ccc(Cl)cc2)CCCC1 : 29.8
NS(=O)(=O)Oc1ccc2nc(Nc3ccc(F)c(F)c3)ccc2c1 : 58.9
O=C(NNc1nc2cc(F)c(F)cc2n2cccc12)c1ccncn1 : 21.4
COc1ccc(NC2=C(Cl)C(=O)C(C)=C(C)C2=O)cc1 : 72.3
CN1C(=O)N(C)C2Nn3c(s/c(=C\c4ccccn4)c3=O)=NC21 (stereo not given) : 106
C=CCn1c(SCC(=O)Nc2cccc(C(=O)/C=C/c3cccc([N+](=O)[O-])c3)c2)nc2ccccc2c1=O : 104

Inquiry: Return growth for the following molecule: CCOC(=O)c1c(Nc2ccccc2)nn2c(-c3ccc(OC)c(OC)c3)ccnc12
Reply text: 44.9

Inquiry: Quick one: give measured growth for COc1cc(-c2noc(C[C@@H](NC(=O)OCc3ccccc3)C(C)C)n2)cc(OC)c1OC
Reply text: 105

Inquiry: Recall and state the measured growth for N#C/C(=C\c1ccc2ccccc2c1)C(=O)Nc1sc2c(c1C#N)CCC2 .
Reply text: 101

Inquiry: Please give measured growth of the following entry: O=C(/C=C/c1cn(-c2ccccc2)nc1-c1ccc(Cl)cc1)c1cc2ccccc2oc1=O
Reply text: 80.3

Inquiry: Please report growth for the following molecule: CCCCOc1ccc(S(=O)(=O)N2CCN(c3nccc(N4CCOCC4)n3)CC2)cc1
Reply text: 16

---

# growth listing for each entry below
Tested on: RPMI-8226 leukemia
Test description: NCI-60 one-dose screen, 48 h (100 = growth as untreated, 0 = no growth, -100 = all killed)
Applied conditions: 10 µM unless noted
The panel holds about 83,000 compounds, 20% with a hit somewhere; the sample as a whole holds those more often.
Numbers only here, please. The scale is %.

In the examples that follow, each entry is paired with its recorded growth.
CCc1ccc(NC(=O)N[C@@H](Cc2cc(F)cc(F)c2)C(=O)N[C@@H]2C(=O)N3CCC[C@H]3C(=O)N3CCO[C@H](C)[C@H]3C(=O)N[C@@H](CO)C(=O)N3C[C@H](C)C[C@H]3C(=O)O[C@H]2C)c(F)c1 : 17
C=C(C)[C@@H]1CC[C@]2(C(=O)ON)CC[C@]3(C)[C@H](CC[C@@H]4[C@@]5(C)C/C(=C/c6ccc(Br)cc6)C(=O)C(C)(C)[C@@H]5CC[C@]43C)[C@@H]12 : 62.2

Inquiry: Report growth for CCN(CC)c1ccc2cc(C(=O)NCCOCCOCCOCCn3cc(CCC(=O)Nc4ccc(C(=O)c5ccc(NC(=O)OC(C)(C)C)cc5)cc4)nn3)c(=O)oc2c1
Reply text: 16.2

---

Tested on: LOX IMVI melanoma
Test description: NCI-60 one-dose screen, 48 h (100 = growth as untreated, 0 = no growth, -100 = all killed)
Applied conditions: 10 µM unless noted
This is part of a sample that, as a whole, favours compounds with a hit. Of some 83,000 tested, about 20% had one in any assay.
Endpoint label: growth (%)
Provide only the numeric value, understood in %.

Here are 4 molecules together with their reported answers.
COc1ccc2c(C3=C(c4c[nH]c5ccccc45)C(=O)N(O)C3=O)coc2c1 : 52.2
C=CCn1c(SCC(=O)Nc2cccc(C(=O)/C=C/c3ccc(Cl)cc3)c2)nc2ccccc2c1=O : 77.9
O=c1c2c(O)cccc2oc2c3c(cc(O)c12)O[C@H]1OC=C[C@@H]31 : 87.4
O=C(CCCCCCN1CC(=O)N2[C@@H](c3ccc(Cl)c(F)c3)c3[nH]c4ccccc4c3C[C@H]2C1=O)NO : -79.9

Moving on to another molecule below.
Inquiry: Return reported growth for target or system LOX IMVI melanoma, item Cc1nn(-c2ccc(Cl)cc2)c(C)c1N=Nc1ccc2oc(=O)ccc2c1 .
Reply text: 69.6

---

Test system: NCI-H226 lung
Test description: NCI-60 one-dose screen, 48 h
Applied conditions: 10 µM unless noted
This is part of a sample that, as a whole, favours compounds with a hit. Of some 83,000 tested, about 20% had one in any assay. Calls of active or inactive are those of the source. Rule for the calls: active = growth percent below 10; inactive = the rest.
Choose the fitting class; nothing outside YES (active), NO (inactive) is accepted.

C#C[C@]1(O)CC[C@H]2[C@@H]3CC=C4c5sc(Nc6cc(Cl)ccn6)nc5CC[C@]4(C)[C@H]3CC[C@@]21C : NO

Inquiry: Entry CC(C)c1nn(-c2ccccc2)c(N2CCCCC2)c1/C=N/NC(N)=S : call = ?
Reply text: NO

Inquiry: For COc1ccc(/C=C/C(=O)c2nnn(-c3ccc(Br)cc3)c2C)cc1OC , what call appears in the results of this test?
Reply text: NO

Inquiry: So what was the verdict on Oc1ccc(CSc2nnc(-c3cnccn3)o2)c2cccnc12 in this test?
Reply text: NO

Inquiry: Which outcome did this test record for the compound C#C[C@]1(O)CC[C@H]2[C@@H]3CC=C4c5sc(Nc6cccc(C)n6)nc5CC[C@]4(C)[C@H]3CC[C@@]21C ?
Reply text: NO

---

# maps each entry to its growth
Test system: HS 578T breast
Test description: NCI-60 one-dose screen, 48 h (100 = growth as untreated, 0 = no growth, -100 = all killed)
Applied conditions: 10 µM unless noted
About 83,000 compounds went through this panel and 20% of them were active in at least one assay; those are over-represented in the sample as a whole.
Number only, in %; omit the unit.

Oc1ccc(CSc2nnc(-c3cnccn3)n2-c2ccccc2)c2cccnc12 : 29.4
O=C(c1cccc(F)c1)n1ccc2cc(NC(=S)Nc3cccnc3)ccc21 : 94.4
C=CCn1c(SCC(=O)c2ccc(OC)cc2)nnc1-c1ccc(OC)cc1 : 103

Inquiry: Complete the entry with growth for NS(=O)(=O)c1ccc(Nc2nc(N/N=C/c3ccc(C(F)(F)F)cc3)nc(Nc3ccccc3)n2)cc1
Reply text: 8.82

---

System: MOLT-4 leukemia
Test description: NCI-60 one-dose screen, 48 h
Applied conditions: 10 µM unless noted
Compounds without any hit were thinned out: in the full panel of roughly 83,000, 20% have a hit. Active and inactive are the calls of the source. Rule for the calls: active = growth percent below 10; inactive = the rest.
Hi! Could you answer with just one of these? active, inactive

O=[N+]([O-])c1ccc(-c2nnc(SCc3ccc(O)c4ncccc34)o2)cc1 : inactive
CCNCc1c(-c2cccc(OC(F)(F)F)c2)[nH]c2ccc(N3CCCC3)cc2c1=O : inactive
O=S(=O)(Nc1ccc(I)c(Cl)c1)c1ccc(-c2cnc(C3CC3)o2)cc1 : inactive
CN(C)c1ccc(/C=N/Nc2nc(N/N=C/c3ccc(N(C)C)cc3)nc(N3CCOCC3)n2)cc1 : inactive
Oc1ccc(-c2nnc(SCc3ccc(O)c4ncccc34)n2-c2ccccc2)cc1 : inactive
COc1cc(/C=N/n2cnc3oc(-c4ccccc4)cc3c2=N)cc(CN2CCCCC2)c1O : active
O=C1CSC(=O)N1Cc1cc2ccccc2nc1Cl : inactive
CC(=O)c1ccc(NC(=O)COc2ccc(C3SCC(=O)N3c3ccc(Br)cc3)cc2)cc1 (configuration not stated) : inactive
Cn1ccnc1C(=O)/C=C/c1ccc(C(=O)Nc2ccc(NC(=O)CCNC(=O)c3csc(Br)n3)cc2)cc1 : inactive
O=C(CN1CCN(c2cc(=O)n(-c3ccccc3)c3ccccc23)CC1)Nc1ccc([N+](=O)[O-])cc1 : inactive

Inquiry: Look up the recorded call for N#Cc1c(NC(=O)c2ccc(F)c(Cl)c2)sc2c1CCC(=O)C2 in this test.
Reply text: active

Inquiry: Record lookup: outcome of this test for COc1cc(/C=N/n2cnc3oc(-c4ccccc4)cc3c2=N)cc(CN2CCCC2)c1O ?
Reply text: active

Inquiry: So what was the verdict on COc1ccc2oc3c4[nH]c5ccccc5c4c4c(c3c2c1)C(=O)N(O)C4=O in this test?
Reply text: inactive

Inquiry: Call for entry Cc1cccc(NC(c2cc3cccc4ccc5cccc2c5c43)c2nnnn2C(C)(C)C)c1C (configuration not stated) :
Reply text: inactive

Inquiry: Can you look up the reported call for Oc1ccccc1/C=N/Nc1nc(N/N=C/c2ccccc2O)nc(N2CCOCC2)n1 for me?
Reply text: inactive

Inquiry: // outcome(item) with item = O=C(Nc1cc(F)cc2cccnc12)c1cnc(N2CCOCC2)cn1
Reply text: inactive

Inquiry: // param item: CCN1CCN(c2cc(C(=O)Nc3nc4ccc(Oc5ccnc(C(=O)NC)c5)cc4s3)cc(C(F)(F)F)c2)CC1 ; yields the recorded call
Reply text: inactive

Inquiry: Lab log entry: CS(=O)(=O)c1ccc(-c2nn(-c3ccccc3)cc2/C=C/C(=O)c2ccc(Br)cc2)cc1 — outcome as called in the assay?
Reply text: inactive

Inquiry: # lookup: test call for C#CCOc1ccc(/C=N/Nc2nc(-c3cc(Cl)ccc3Cl)cs2)cc1
Reply text: inactive

Inquiry: Hi team, can someone confirm the assay call for C=C1C(=O)O[C@@H]2C[C@@H](C)CCC(=O)[C@](C)(OC(C)=O)C[C@H](OC(=O)/C(C)=C\C)[C@@H]12 ?
Reply text: inactive

Inquiry: Recorded test call requested for CCC(=O)Nc1ccc(-c2nc(-c3cccc(O)c3)c(-c3ccnc(Br)c3)[nH]2)cc1
Reply text: inactive

Inquiry: Per the assay record, what outcome was assigned to COc1cc2cc(Oc3ccc(NC(=O)Nc4cc(C(F)(F)F)cc(C(F)(F)F)c4)cc3)c(C)nc2cc1OCCN(C)C ?
Reply text: inactive

Inquiry: Could you please tell me the result logged for O=C(NCCCNc1cc(-c2cn(-c3ccccc3)nc2-c2cccc(O)c2)ccn1)Nc1ccc(F)cc1 in this assay?
Reply text: active

Inquiry: Recorded call for Cn1c2ccc(Br)cc2c2c3c(c4c5cc(F)ccc5oc4c21)C(=O)N(O)C3=O ?
Reply text: inactive

Inquiry: Record request — test call for Fc1ccc(-c2cc3nc(C(Cl)Cl)nc(-c4cccs4)n3n2)cc1
Reply text: inactive

Inquiry: Outcome? C=C1C(=O)O[C@@H]2C[C@@H](C)/C=C\C(=O)[C@](C)(OC(C)=O)C[C@H](OC(=O)/C(C)=C\C)[C@@H]12
Reply text: active

Inquiry: Record request — test call for N/C(=N\OC(=O)CSc1nc2ccccc2s1)c1ccc(Cl)cc1
Reply text: inactive

Inquiry: For this compound, state the assay outcome: O=C1[C@H]2Cc3c([nH]c4ccccc34)[C@@H](c3c(Cl)cccc3Cl)N2C(=O)CN1C1CCN(Cc2ccccc2)CC1
Reply text: inactive

Inquiry: Field: outcome | Entry: Cc1ccc(-c2csc(N/N=C/c3nc4ccccc4n3C3CC3)n2)cc1
Reply text: inactive

Inquiry: Which outcome was entered for the compound Nc1nc(-c2cccc([N+](=O)[O-])c2)c(N=Nc2ccccc2Cl)s1 in this test?
Reply text: inactive

Inquiry: Recorded call for CCCCCCNC(=O)Oc1ccc(/C(=C(/C)c2ccc(OC)cc2)c2ccc(OCCN3CCCC3)cc2)cc1 ?
Reply text: inactive

Inquiry: Could you kindly confirm the outcome this assay logged for COC[C@]12CC[C@@H](C)[C@H](C)[C@H]1C1=CC[C@@H]3[C@@]4(C)CCCNC(C)(C)[C@@H]4CC[C@@]3(C)[C@]1(C)CC2 ?
Reply text: active

Inquiry: State the result this test recorded for NNC(=O)c1sc2nc(-c3cnccn3)cc(-c3cccs3)c2c1N .
Reply text: inactive

Inquiry: Test call for this compound, please: Cc1cc(=O)n2nc(-c3cn(C)c4ccc(Cl)cc34)sc2n1
Reply text: inactive

Inquiry: Hi, do you know how CN1CCN(c2ccc(C(=O)/C=C/c3ccc(Cl)c(C(F)(F)F)c3)cc2)CC1 came out in this test?
Reply text: inactive

Inquiry: Short answer needed: outcome of this test for O=C(COc1ccc(/C=C2\SC(=O)NC2=O)cc1)Nc1ccc(C(=O)/C=C/c2cc3ccccc3nc2Cl)cc1 ?
Reply text: inactive

Inquiry: Outcome logged for C=C(C)C(=O)O[C@H]1C[C@@]2(C)OC(=CC2=O)/C(C)=C\[C@H]2OC(=O)C(=C)[C@H]12 in this assay:
Reply text: active

All values here come from PubChem BioAssay (NCI).
